Target: … (Plasmodium falciparum)
Test: SPR, antibody on chip
Let's look at some binders and their measured Kd.
Give a bare numeral; the unit µM is implied.

AB-007028 (antibody, V domains shown) VH: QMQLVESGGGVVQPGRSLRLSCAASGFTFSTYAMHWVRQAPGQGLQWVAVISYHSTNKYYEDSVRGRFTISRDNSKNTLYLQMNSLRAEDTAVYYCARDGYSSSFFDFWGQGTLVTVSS VL: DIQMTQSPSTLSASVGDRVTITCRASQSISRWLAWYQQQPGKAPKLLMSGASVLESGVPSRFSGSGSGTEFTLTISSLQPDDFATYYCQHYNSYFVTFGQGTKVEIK    15.9
AB-007035 (antibody, V domains shown) VH: QMQLVESGGGVVQPGRSLRLSCTASGFTFSSYAMHWVRQSPGQGLQWVAVISYHSTNKYYEDSVRGRFTISRDNSKNTLYLQMNSLRAEDTAVYYCARDGYSSSFFDFWGQGTLVTVSS VL: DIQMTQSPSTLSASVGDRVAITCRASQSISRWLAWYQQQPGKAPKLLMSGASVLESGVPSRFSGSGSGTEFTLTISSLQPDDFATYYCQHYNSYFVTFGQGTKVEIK    9.75

Q: Which Kd reading was recorded for the binder AB-007070 (antibody, V domains shown) VH: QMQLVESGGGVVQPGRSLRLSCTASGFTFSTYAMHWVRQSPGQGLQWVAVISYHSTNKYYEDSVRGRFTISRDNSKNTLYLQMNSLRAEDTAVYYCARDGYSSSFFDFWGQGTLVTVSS VL: DIQMTQSPSTLSASVGDRVAITCRASQSISRWLAWYQQQPGKAPKLLMSAASVLESGVPSRFSGSGSGTEFTLTISSLQPDDFATYYCQHYNSYFVTFGQGTKVEIK ?
Result: 65.3
